These data points were gathered from patent US8975249B2.

target.entity: EGFR double mutation L858R/T790M (H1975 cells) (Homo sapiens (Human), UniProt P00533, L858R/T790M)
experimental.protocol: Phospho-EGFR signaling immunoblot in H1975 cells
Assay type: cell-based
condition.label: signaling EC50 WT EGFR / H1975
The following molecules are listed with their measured Ratio WT/mutant (H1975) values.

q: # lookup: Ratio WT/mutant (H1975) of C=CC(=O)Nc1cccc(Nc2nc(Nc3ccc(N4CCN(S(C)(=O)=O)CC4)cc3OC)ncc2Cl)c1 [Compound I-41]
a: >1

###

target.entity: EGFR (WT) (Homo sapiens (Human))
pIC50: −log10 of the molar value.
Measured pIC50 by item

Study these solved cases before continuing.
q: Value lookup for pIC50; key = C=CC(=O)Nc1cccc(Nc2nc(Nc3ccc(N4CCN(C(C)=O)CC4)cc3OC)ncc2Br)c1 [Compound I-40]
a: 7.52 to 8.00

q: Proceed to C=CC(=O)Nc1cccc(Oc2nc(Nc3ccc(N4CCN(C(=O)OC(C)(C)C)CC4)cc3OC)ncc2Cl)c1 [Compound I-46]
a: 6.52 to 7.00

q: And C=CC(=O)Nc1cccc(Oc2nc(Nc3ccc(N4CCN(C(=O)OC(C)(C)C)CC4)cc3OC)ncc2C(F)(F)F)c1 [Compound I-42] ?
a: 6.00 to 6.52

Could you now look at the following compound, please?
q: For the compound C=CC(=O)Nc1cccc(Oc2nc(Nc3ccc(N4CCN(C(=O)NC)CC4)cc3OC)ncc2C(F)(F)F)c1 [Compound I-21] , what pIC50 is on record?
a: 7.52 to 8.00

###

target.entity: EGFR (WT) (Homo sapiens (Human), UniProt P00533)
experimental.protocol: Omnia biochemical assay, EGFR-WT active enzyme
condition.label: [EGFR-WT]=5 nM, [ATP]=15 uM, 30 min pre-incubation
measurement.type: IC50

q: Hello, I am looking for reported IC50 with EGFR (WT) (Homo sapiens (Human), UniProt P00533) for C=CC(=O)Nc1cccc(Nc2nc(Nc3ccc(N4CCN(C(=O)CO)CC4)cc3OC(F)F)ncc2C(F)(F)F)c1 . Could you help?
a: < 1 nM

q: Also C=CC(=O)Nc1cccc(Nc2nc(Nc3ccc(N4CCN(S(C)(=O)=O)CC4)cc3OC)ncc2C(F)(F)F)c1 ?
a: 10 to 30 nM

q: Would you mind doing C=CC(=O)Nc1cccc(Nc2nc(Nc3ccc(N4CCN(C(C)=O)[C@H](C(=O)OC)C4)cc3OC)ncc2C(F)(F)F)c1 as well?
a: 10 to 30 nM

q: Now give it for C=CC(=O)Nc1cccc(Oc2nc(Nc3ccc(N4CCN(C(=O)CO)CC4)cc3OC)ncc2C(F)(F)F)c1 too.
a: 10 to 30 nM

q: C=CC(=O)Nc1cccc(Oc2nc(Nc3ccc(N4CCN(C(=O)CO)CC4)cc3OC)ncc2Cl)c1 , same question.
a: 1 to 10 nM

q: Also C=CC(=O)Nc1cccc(Oc2nc(Nc3ccc(N4CCN(S(N)(=O)=O)CC4)cc3OC)ncc2C(F)(F)F)c1 ?
a: 1 to 10 nM

q: Try this compound next: C=CC(=O)Nc1cccc(Oc2nc(Nc3ccc(N4CCCOCC4)cc3OC)ncc2Cl)c1
a: 30 to 100 nM

q: Would you kindly repeat that for C=CC(=O)Nc1cccc(Nc2nc(Nc3ccc(N4CCN(C(=O)CC)CC4)cc3OC)ncc2C(F)(F)F)c1 ?
a: 1 to 10 nM

Further cases:
q: Query for EGFR (WT) (Homo sapiens (Human), UniProt P00533): what IC50 does the record show for C=CC(=O)Nc1cccc(Nc2nc(Nc3ccc(N4CCN(C(C)=O)CC4)cc3OC)ncc2Cl)c1 ?
a: 10 to 30 nM
